Reported pIC50 for target or system Plasminogen activator inhibitor 1 (Homo sapiens, UniProt P05121), by entry.
Keep in mind that pIC50 stands for -log10 of concentration in molar terms.

- O=C(O)c1cccc(Oc2cc(N3CCN(c4cccc(C(F)(F)F)c4)CC3)c([N+](=O)[O-])cc2C(F)(F)F)c1: 5.43
- O=C(O)C1CCN(c2cc(N3CCN(Cc4cccc(C(F)(F)F)c4)CC3)c([N+](=O)[O-])cc2C(F)(F)F)CC1: 5.37
- O=C(O)c1ccc(CNc2ccc([N+](=O)[O-])c(N3CCN(c4cccc(C(F)(F)F)c4)CC3)c2)cc1: 5.17
- O=C(O)C1CCN(c2cc(N3CCN(c4ccc(C(F)(F)F)cn4)CC3)c([N+](=O)[O-])cc2C(F)(F)F)CC1: 5.49
- O=C(O)C1CCN(c2cccc(F)c2CNc2ccc(N3CCN(c4cccc(C(F)(F)F)c4)CC3)c(C(F)(F)F)c2)CC1: 6.00
- O=C(O)c1ccc(CNc2ccc([N+](=O)[O-])c(N3CCN(c4cccc(C(F)(F)F)c4)CC3)n2)cc1: 5.21
- O=C(O)c1ccc(CNc2nc(N3CCN(c4cccc(C(F)(F)F)c4)CC3)ccc2[N+](=O)[O-])cc1: 5.47
- O=C(O)C1CCCN1c1cc(N2CCN(c3cccc(C(F)(F)F)c3)CC2)c([N+](=O)[O-])cc1C(F)(F)F (configuration not stated): 5.10
- O=C(O)CCNc1cc(N2CCN(c3cccc(C(F)(F)F)c3)CC2)c([N+](=O)[O-])cc1C(F)(F)F: 6.05
- COc1cccc(CNc2ccc(N3CCN(c4cccc(C(F)(F)F)c4)CC3)c(C(F)(F)F)c2)c1Oc1ccc([N+](=O)[O-])cc1C(=O)O: 6.30

Challenge: Query (compound): `O=[N+]([O-])c1cc(C(F)(F)F)c(N2CCN(c3cccc(C(F)(F)F)c3)CC2)cc1NC[P+]([O-])(O)O` ; field requested: pIC50
Response given: 5.74

Challenge: Now this one: `O=C(O)c1ccc(CNc2ccc(N3CCN(c4cccc(C(F)(F)F)c4)CC3)c(C(F)(F)F)c2)cc1`
Response given: 5.77
